System: E. coli TESEC Mtb Alr
measurement notes: growth (OD600 after 10 h); higher = more growth (less inhibition)
condition set: arabinose 1000000 nM; compound 0.1 mM; raw OD600 reference: median of DMSO wells 0.193, cell-free background 0.041
Structures can show the parent of a compound that is named as a salt.
property name: growth
Give bare numbers.

response.value for O=C(Nc1ccc([N+](=O)[O-])cc1Cl)c1cc(Cl)ccc1O [Niclosamide] (field: growth) = 0.0397

response.value for `COc1cc(C(=O)N2CCOCC2)cc(OC)c1OC` (field: growth) = 0.203

Value sought for every listed compound: growth.
1. CN/C(=N\CCSCc1nc[nH]c1C)NC#N
2. COc1ccc(C(Cl)=C(c2ccc(OC)cc2)c2ccc(OC)cc2)cc1

0.179
0.208

Value sought for every listed compound: growth.
1. O=C(Nc1cccc2c(=O)cc(-c3nnn[nH]3)oc12)c1ccc(OCCCCc2ccccc2)cc1
2. COCC1=C(C(=O)OC(C)OC(=O)OC(C)C)N2C(=O)[C@@H](NC(=O)/C(=N\OC)c3csc(N)n3)[C@H]2SC1 (stereo partly drawn)
3. Cc1cn([C@H]2C[C@H](N=[N+]=[N-])[C@@H](CO)O2)c(=O)[nH]c1=O
4. Oc1c(I)cc(Cl)c2cccnc12
5. OC(CCN1CCCCC1)(c1ccccc1)c1ccccc1 [Pridinol methanesulfonate salt]

1: 0.144; 2: 0.166; 3: 0.0604; 4: 0.0417; 5: 0.177

Value sought for every listed compound: growth.
1. CCCc1nc(C)c2c(=O)nc(-c3cc(S(=O)(=O)N4CCN(CC)CC4)ccc3OCC)[nH]n12
2. CN1CCCC(CC2c3ccccc3Sc3ccccc32)C1 (stereo not drawn) [Metixene hydrochloride]
3. COc1ccc(-c2ccc(=N)n(CCCC(=O)O)n2)cc1 [Gabazine bromide]

0.107
0.0416
0.19

Value sought for every listed compound: growth.
1. COc1ccccc1OCC(O)CN1CCN(CC(=O)Nc2c(C)cccc2C)CC1 (stereo not drawn)
2. CCN1CCCC1CNC(=O)c1cc(S(=O)(=O)CC)c(N)cc1OC (stereo not drawn) [Amisulpride]
3. C[N+](C)(CCOc1ccccc1)Cc1ccccc1.O=C([O-])c1cc2ccccc2cc1O [Bephenium hydroxynaphthoate]
4. Nc1nc2ccc(OC(F)(F)F)cc2s1 [Riluzole hydrochloride]

0.178
0.169
0.104
0.262

Value sought for every listed compound: growth.
1. CCCOc1cc(N)ccc1C(=O)OCCN(CC)CC [Propoxycaine hydrochloride]
2. COc1ccc(C(=O)c2ccccc2O)c(O)c1

1: 0.22; 2: 0.085

* * *

Provide the reported growth of each item.
System: E. coli TESEC Alr+ wild-type control
measurement notes: growth (OD600 after 10 h); higher = more growth (less inhibition)
condition set: compound 0.1 mM; raw OD600 reference: median of DMSO wells 0.241, cell-free background 0.041
Structures can show the parent of a compound that is named as a salt.
Give bare numbers.

Reference set (6 entries):
response.value for COc1ccc2[nH]c([S+]([O-])Cc3ncc(C)c(OC)c3C)nc2c1 (configuration not stated) [Omeprazole] (field: growth) = 0.19

response.value for CCCCC1=NC2(CCCC2)C(=O)N1Cc1ccc(-c2ccccc2-c2nnn[nH]2)cc1 [Irbesartan] (field: growth) = 0.152

response.value for Clc1ccccc1CN1CCc2sccc2C1 [Ticlopidine hydrochloride] (field: growth) = 0.0758

response.value for CCC(C)(C)C(=O)O[C@H]1C[C@@H](C)C=C2C=C[C@H](C)[C@H](CC[C@@H]3C[C@@H](O)CC(=O)O3)[C@H]21 [Simvastatin] (field: growth) = 0.198

response.value for CO[C@@H]1[C@@H](O[C@@H]2O[C@H](C)[C@@H](O[C@H]3C[C@@](C)(O)[C@@H](OC(=O)CC(C)C)[C@H](C)O3)[C@H](N(C)C)[C@H]2O)[C@@H](CC=O)C[C@@H](C)[C@@H](O)/C=C/C=C/C[C@@H](C)OC(=O)C[C@H]1OC(C)=O [Josamycin] (field: growth) = 0.0417

response.value for CC(=O)OCC(=O)NCCCOc1cccc(CN2CCCCC2)c1 [Roxatidine Acetate HCl] (field: growth) = 0.241

Now look at this entry.
response.value for O=C(Cn1ccnc1[N+](=O)[O-])NCCO [Etanidazole] (field: growth) = 0.244
